FYI, the data here is from the supplement of paper PMC10065799.

# Test system: c-Src
# Procedure summary: phosphorylation enrichment, bacterial display (enrichment ratio); higher = better substrate or ligand; peptides without Tyr show the background;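 note: 11-residue human phosphosite peptides and single-mutation variants displayed on the E. coli surface, counted by deep sequencing, each peptide's frequency after selection divided by its frequency in the unselected input library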;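 note: frequency after pTyr selection over input frequency; kinase dosed for 20-30% of maximal phosphorylation in three min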
Outcome measure: phosphorylation enrichment
One number for each entry.

Example entries begin here.
Input sequence | phosphorylation enrichment
FKEDPYLVVNP [MCM6_Y810_E806K_YF] | 1.98
DFRTTYVNANE [KCNH2_Y475_N470D] | 0.378
GRSTFYWPRPR [GAGE12J_Y10_YF] | 0.501
IVKAYYVHARA [AIPL1_Y268_R270H] | 0.432

Please report phosphorylation enrichment for every entry that follows.
1. ISHVAYLVLGK [TRRAP_Y892_R893L]
2. YQLPYYNMVPS [BMPR1A_Y458]
3. TEFSQYMRRKN [MAX_Y73_I71S_YF]

A:
1: 0.454; 2: 5.1; 3: 0.735

Please report phosphorylation enrichment for every entry that follows.
1. GESKDYALHVG [SVIL_Y185]
2. EAVKNYTDKRG [PBRM1_Y672]
3. NPQKSCFIRLF [WAS_Y83_Y83C_YF]

A:
1. 0.416
2. 0.433
3. 0.453

----------
# Target entity: EPHB1 (UniProt P54762)
# Sequence (P54762 whole entry, looked up): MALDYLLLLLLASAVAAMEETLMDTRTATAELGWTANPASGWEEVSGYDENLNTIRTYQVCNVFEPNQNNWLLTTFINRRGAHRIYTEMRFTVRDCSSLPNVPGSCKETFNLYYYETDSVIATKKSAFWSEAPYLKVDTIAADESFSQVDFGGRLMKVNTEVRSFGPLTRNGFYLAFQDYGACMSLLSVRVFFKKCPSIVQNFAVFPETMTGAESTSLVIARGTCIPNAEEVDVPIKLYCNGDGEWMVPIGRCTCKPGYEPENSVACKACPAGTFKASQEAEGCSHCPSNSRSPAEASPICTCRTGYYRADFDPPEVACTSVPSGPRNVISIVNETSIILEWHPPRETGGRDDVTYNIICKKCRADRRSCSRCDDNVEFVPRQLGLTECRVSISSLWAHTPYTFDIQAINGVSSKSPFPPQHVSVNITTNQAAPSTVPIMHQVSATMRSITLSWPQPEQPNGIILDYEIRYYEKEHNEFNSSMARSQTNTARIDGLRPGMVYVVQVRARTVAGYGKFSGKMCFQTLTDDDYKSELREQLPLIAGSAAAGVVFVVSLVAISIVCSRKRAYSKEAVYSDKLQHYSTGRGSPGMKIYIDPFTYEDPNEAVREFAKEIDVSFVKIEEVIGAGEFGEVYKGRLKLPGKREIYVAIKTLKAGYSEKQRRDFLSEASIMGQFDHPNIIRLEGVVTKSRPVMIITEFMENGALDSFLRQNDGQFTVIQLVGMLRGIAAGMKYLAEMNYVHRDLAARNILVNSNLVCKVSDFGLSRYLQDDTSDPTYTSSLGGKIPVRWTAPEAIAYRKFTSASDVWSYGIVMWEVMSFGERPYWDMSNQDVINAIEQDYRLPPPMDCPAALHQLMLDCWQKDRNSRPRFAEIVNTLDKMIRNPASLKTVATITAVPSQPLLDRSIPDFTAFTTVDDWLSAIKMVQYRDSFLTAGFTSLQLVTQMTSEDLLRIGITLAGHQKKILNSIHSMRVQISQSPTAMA
# Procedure summary: phosphorylation enrichment, bacterial display (enrichment ratio); higher = better substrate or ligand; peptides without Tyr show the background
Outcome measure: phosphorylation enrichment
One number for each entry.

Example entries begin here.
Input sequence | phosphorylation enrichment
IGEGTYRQVYK [CDK13_Y716_G717R] | 0.289
IEDPYYGNDSD [ACP1_Y133] | 0.638
QDEHGYISRCF [HSPB1_Y133] | 0.718
LARDMHDKEYY [MET_Y1230_Y1230H] | 0.469
LIDGYYRLTAD [JAK2_Y373] | 1.88

Please report phosphorylation enrichment for every entry that follows.
1. NALAQYQEMEK [BBS4_Y395]
2. NGRQCYSCRGN [PLAUR_Y217_K220R]
3. KLPYLYDDPFS [GPX2_Y127_P126L]
4. KNKKDYFDMFE [SLC26A3_Y526_YF]
5. SQQTFCRVSNM [ABCD1_Y181_Y181C_YF]

A:
[0.466, 0.261, 3.22, 0.779, 0.461]

----------
# Target entity: FGFR1 (UniProt P11362)
# Sequence (P11362 whole entry, looked up): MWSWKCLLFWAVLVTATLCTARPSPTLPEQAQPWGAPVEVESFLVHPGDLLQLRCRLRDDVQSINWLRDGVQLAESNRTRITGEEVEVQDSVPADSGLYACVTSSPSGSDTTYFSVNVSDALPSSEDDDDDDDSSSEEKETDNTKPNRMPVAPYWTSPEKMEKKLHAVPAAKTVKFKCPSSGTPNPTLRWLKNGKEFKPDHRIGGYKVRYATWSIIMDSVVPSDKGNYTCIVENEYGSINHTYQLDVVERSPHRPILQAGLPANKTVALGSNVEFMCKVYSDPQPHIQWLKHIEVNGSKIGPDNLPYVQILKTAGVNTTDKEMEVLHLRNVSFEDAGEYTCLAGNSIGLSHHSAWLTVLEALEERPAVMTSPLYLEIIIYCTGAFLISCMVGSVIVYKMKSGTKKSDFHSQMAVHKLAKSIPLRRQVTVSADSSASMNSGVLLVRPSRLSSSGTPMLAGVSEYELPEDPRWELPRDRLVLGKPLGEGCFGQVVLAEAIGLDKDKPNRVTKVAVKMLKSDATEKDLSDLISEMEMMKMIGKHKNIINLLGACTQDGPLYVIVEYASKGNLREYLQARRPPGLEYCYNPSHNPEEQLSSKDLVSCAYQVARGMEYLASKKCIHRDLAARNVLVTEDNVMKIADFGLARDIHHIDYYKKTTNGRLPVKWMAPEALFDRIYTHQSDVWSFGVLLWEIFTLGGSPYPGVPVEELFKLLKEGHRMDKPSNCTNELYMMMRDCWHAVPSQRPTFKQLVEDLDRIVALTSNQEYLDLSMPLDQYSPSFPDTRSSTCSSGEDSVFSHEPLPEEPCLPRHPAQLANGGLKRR
# Procedure summary: phosphorylation enrichment, bacterial display (enrichment ratio); higher = better substrate or ligand; peptides without Tyr show the background
Outcome measure: phosphorylation enrichment
Give bare numbers.

Input sequence | Target entity | phosphorylation enrichment
VEKEKYVSFIS [JMJD1C_Y596_M591V_YF] | FGFR1 (UniProt P11362) | 0.493
HLDRSYSFSFS [PEAR1_Y890_R885H_YF] | FGFR1 (UniProt P11362) | 0.841
KRLDGYVLEGW [IGSF9_Y656_R661W] | FGFR1 (UniProt P11362) | 0.542

Please report phosphorylation enrichment for every entry that follows.
1. KLQKYYRQNPD [EHHADH_Y683]
2. NTTIHYNFMCN [TP53_Y234_C229N_YF]
3. CEHRGHLFLAI [TEK_Y897_Y897H_YF]

A:
0.413
0.542
0.536

Please report phosphorylation enrichment for every entry that follows.
1. KAIMTYVSSFY [ACTN4_Y260]
2. HEEKVYLSRGD [CRACR2A_Y141]

A:
1: 0.489; 2: 0.672

Please report phosphorylation enrichment for every entry that follows.
1. TEYIQYVRRKN [MAX_Y73_M74V]
2. LIHLHYIRKDF [BBS4_Y43_YF]
3. PSSNLYFRCLT [CNGA3_Y168_W171C_YF]
4. EKSREYHRLYE [PIK3R1_Y463_D464H]
5. DFRTTYVNANE [KCNH2_Y475_N470D]
6. DLNATYCTIQG [U2SURP_Y634_R635C]
7. KNEVLYDGENH [ARFGEF1_Y314]

A:
1. 0.528
2. 0.937
3. 1.19
4. 0.455
5. 0.414
6. 1.06
7. 0.399

----------
# Target entity: Hck (UniProt P08631)
# Sequence (P08631 whole entry, looked up): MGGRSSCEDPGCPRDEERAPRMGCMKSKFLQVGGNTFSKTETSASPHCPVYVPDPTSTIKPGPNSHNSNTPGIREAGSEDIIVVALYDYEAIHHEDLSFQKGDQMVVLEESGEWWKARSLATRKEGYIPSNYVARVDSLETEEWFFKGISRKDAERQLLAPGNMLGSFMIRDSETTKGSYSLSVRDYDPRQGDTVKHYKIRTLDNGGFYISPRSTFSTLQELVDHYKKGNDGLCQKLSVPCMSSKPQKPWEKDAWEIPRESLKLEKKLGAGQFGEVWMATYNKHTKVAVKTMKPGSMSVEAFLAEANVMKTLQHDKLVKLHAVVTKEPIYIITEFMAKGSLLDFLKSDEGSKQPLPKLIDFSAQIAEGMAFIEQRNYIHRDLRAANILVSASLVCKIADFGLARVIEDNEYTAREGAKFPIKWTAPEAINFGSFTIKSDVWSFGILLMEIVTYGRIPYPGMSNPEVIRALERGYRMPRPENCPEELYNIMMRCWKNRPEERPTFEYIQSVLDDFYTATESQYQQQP
# Procedure summary: phosphorylation enrichment, bacterial display (enrichment ratio); higher = better substrate or ligand; peptides without Tyr show the background
Record form. Attribute: phosphorylation enrichment. Fill in for each entry.
Give bare numbers.

Please report phosphorylation enrichment for every entry that follows.
1. ENAGFYFRISA
2. KRAIGHYSATS [FAM120A_Y327_Y327H]
3. NGTVSYAIVAG [CDH23_Y1672_T1671S]
4. APQFTYTQGGQ [FLNA_Y1763_A1764T_YF]
5. SLGSPYEQPPR [PDLIM4_Y137_G138E]
6. DVFVSYDFGKS [SORL1_Y139_YF]
7. CQAHGYFCQPI [STK11_Y156_L160P]
8. AFLEDYFTSTE [SRC_Y522]

A:
[0.492, 0.312, 0.479, 0.395, 0.619, 0.636, 0.357, 0.549]

----------
# Target entity: Hck (UniProt P08631)
# Procedure summary: phosphorylation enrichment, bacterial display (enrichment ratio); higher = better substrate or ligand; peptides without Tyr show the background
Give Criterion met when the value for phosphorylation enrichment is at least 0.6. Give Criterion not met when it is less.

Here's what some known entries look like.
Input sequence | Target entity | Category label
LSSVSYVGCSL [ADGRD1_Y571_I569V] | Hck (UniProt P08631) | Criterion met
CEHRGHLFLAI [TEK_Y897_Y897H_YF] | Hck (UniProt P08631) | Criterion not met
DELDKYSEVLK [TPM1_Y60_A63V] | Hck (UniProt P08631) | Criterion not met
TFEFRYLEDQD [CNOT3_Y746_R750Q_YF] | Hck (UniProt P08631) | Criterion met
PEIIAYQPYGK [PRKCG_Y529] | Hck (UniProt P08631) | Criterion met

Q: Hi, just wondering whether CATIHYNYMCN [TP53_Y234_T230A] shows phosphorylation enrichment of 0.6 or higher.
A: Criterion not met

----------
Record form. Attribute: phosphorylation enrichment. Fill in for each entry.
# Target entity: Fyn (UniProt P06241)
# Sequence (P06241 whole entry, looked up): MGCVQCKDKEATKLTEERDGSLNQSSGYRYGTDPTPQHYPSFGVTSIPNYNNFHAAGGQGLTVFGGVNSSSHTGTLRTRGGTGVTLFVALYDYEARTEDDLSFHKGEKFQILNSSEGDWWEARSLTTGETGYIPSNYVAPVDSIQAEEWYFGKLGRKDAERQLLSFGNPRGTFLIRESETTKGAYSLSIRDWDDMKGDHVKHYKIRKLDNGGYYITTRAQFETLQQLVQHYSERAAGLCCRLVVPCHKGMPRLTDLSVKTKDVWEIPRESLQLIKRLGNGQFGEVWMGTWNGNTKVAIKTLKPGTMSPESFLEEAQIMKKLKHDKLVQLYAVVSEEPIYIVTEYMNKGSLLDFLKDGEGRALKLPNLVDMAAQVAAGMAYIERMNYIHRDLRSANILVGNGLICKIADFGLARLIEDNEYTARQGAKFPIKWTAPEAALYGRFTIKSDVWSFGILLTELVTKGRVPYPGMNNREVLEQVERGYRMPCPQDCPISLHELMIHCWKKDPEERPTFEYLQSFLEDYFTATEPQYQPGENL
# Procedure summary: phosphorylation enrichment, bacterial display (enrichment ratio); higher = better substrate or ligand; peptides without Tyr show the background

Input sequence | Outcome measure | Result
DLTQDSEEWKR [ORC6_Y232_Y232S] | phosphorylation enrichment | 0.463

Please report phosphorylation enrichment for every entry that follows.
1. RRETPYGGGGG [FUS_Y526_R524T]
2. RRIYSYRGHLW [VHL_Y112_H110Y]
3. EDNPEYMRLRN [ADD2_Y31_D28N]
4. IDAICYYRMEN [NPHS2_Y194]
5. SVTCTYYPALN [TP53_Y126_S127Y]
6. CKLVDYDSARH [BIN1_Y150_R145C]
7. DYYDLYGGEKF [PTPN11_Y66]

A:
1. 0.718
2. 0.986
3. 0.444
4. 0.66
5. 0.48
6. 0.463
7. 5.73

----------
# Target entity: FGFR1 (UniProt P11362)
# Procedure summary: phosphorylation enrichment, bacterial display (enrichment ratio); higher = better substrate or ligand; peptides without Tyr show the background
Give t when the value for phosphorylation enrichment is at least 0.5. Give f when it is less.

Input sequence | Category label
NNFGNYNNQSS [HNRNPA1_Y318_D314N] | f

Q: Hi, just wondering whether EKMWSYMKSAE [GRIA3_Y705] shows phosphorylation enrichment of 0.5 or higher.
A: f

Q: Hi, just wondering whether RILENYGADID [DNAH5_Y596_L591R] shows phosphorylation enrichment of 0.5 or higher.
A: t

Q: Hi, just wondering whether EVTLTYATGIK [NFKB1_Y485_T489I] shows phosphorylation enrichment of 0.5 or higher.
A: f

Q: Hi, just wondering whether GLSDLYVKIHL [SYT2_Y309_P308L] shows phosphorylation enrichment of 0.5 or higher.
A: f

Q: Hi, just wondering whether WLFFRYLPIGC [ATP2A2_Y836_A838P] shows phosphorylation enrichment of 0.5 or higher.
A: t

Q: Hi, just wondering whether LNCIFYKDQTG [RS1_Y166_W163C_YF] shows phosphorylation enrichment of 0.5 or higher.
A: t

Q: Hi, just wondering whether LVMFIYAIFWM [SCN1A_Y1684_G1688W] shows phosphorylation enrichment of 0.5 or higher.
A: t

Q: Hi, just wondering whether LNEAVYTKMMT [G6PD_Y401_P396L] shows phosphorylation enrichment of 0.5 or higher.
A: t

Q: Hi, just wondering whether FSAPNCCFRCG [PPP2CA_Y265_Y265C_YF] shows phosphorylation enrichment of 0.5 or higher.
A: f

Q: Hi, just wondering whether KRISCYEARFQ [PFKFB3_Y194_S197R_YF] shows phosphorylation enrichment of 0.5 or higher.
A: f

Q: Hi, just wondering whether ANARMYGVLPW [PLP1_Y207_D203N] shows phosphorylation enrichment of 0.5 or higher.
A: f

Q: Hi, just wondering whether LVSCAYQMARG [FGFR1_Y605_V607M] shows phosphorylation enrichment of 0.5 or higher.
A: t

Q: Hi, just wondering whether TEGNGYISFNE [LCP1_Y28_D24E] shows phosphorylation enrichment of 0.5 or higher.
A: f

Q: Hi, just wondering whether IPGRFYETGSI [PAX2_Y73_L69P_YF] shows phosphorylation enrichment of 0.5 or higher.
A: t

Q: Hi, just wondering whether ALIKAYVKAVA [SMN1_Y43_D44V] shows phosphorylation enrichment of 0.5 or higher.
A: t
